# Tested on: ocular hypertension model
# test-summary: Ocular tension lowering effect in rabbit ocular hypertension model (eye drops)
# Assay type: in vivo, New Zealand white rabbits
# study-conditions: applied concentration 1.0%; 50 μl by dropping; over 2 hours
Labelling field: enter 1 if recorded AUC (area between the ocular tension curves of control group and drug application group) is less than 5 mmHg · hr. Enter -1 if it equals or exceeds that cut-off.

For `CCCc1nc(C(C)(C)O)c(C(=O)O)n1Cc1ccc(-c2ccccc2C(=O)O)cc1` , is the recorded AUC (area between the ocular tension curves of control group and drug application group) below the cut-off of 5 mmHg · hr? 1

I wonder whether `CCc1nc2cccc(C(=O)O)c2n1Cc1ccc(-c2ccccc2C(=O)C(=O)O)cc1` has AUC (area between the ocular tension curves of control group and drug application group) below 5 mmHg · hr. Can you tell? -1

In plain terms, does CCCc1nc(C(C)O)c(C(=O)O)n1Cc1ccc(-c2ccccc2-c2nn[nH]n2)cc1 (stereo not drawn) come in under 5 mmHg · hr for AUC (area between the ocular tension curves of control group and drug application group)? -1

Determine whether this molecule shows AUC (area between the ocular tension curves of control group and drug application group) lower than 5 mmHg · hr (ties excluded): `CCCc1nc(C(C)(C)O)c(C(=O)O)n1Cc1ccc(-c2ccccc2-c2nn[nH]n2)cc1` -1

Strictly below 5 mmHg · hr: is that where AUC (area between the ocular tension curves of control group and drug application group) of `CCCc1nc(C(C)(C)O)c(C(=O)O)n1Cc1ccc(-c2ccccc2C(=O)C(=O)O)cc1` sits? -1

Please determine if `CCCc1nc(C(C)C)c(C(=O)O)n1Cc1ccc(-c2ccccc2-c2nn[nH]n2)cc1` is below 5 mmHg · hr in terms of AUC (area between the ocular tension curves of control group and drug application group). 1

Would you kindly verify if AUC (area between the ocular tension curves of control group and drug application group) of CCCCc1nc(Cl)c(CO)n1Cc1ccc(-c2ccccc2-c2nnn[nH]2)cc1 [DUP 753, reference compound] is strictly less than 5 mmHg · hr? 1
